Recorded values, source ChEMBL document CHEMBL5036301.

Quick reference: Cmax at 24 h of the listed items.
- TEST_DESCRIPTION: in vivo
- RUN_PARAMETERS: mouse, po, 25 mg/kg
OUTCOME_MEASURE: Cmax at 24 h

| MOLECULE | OUTCOME_MEASURE | READOUT_VALUE |
| --- | --- | --- |
| O=[N+]([O-])c1cn2c(n1)OC(COc1ccc(C(F)(F)F)nc1)CC2 (centres undefined) | Cmax at 24 h | 5800 ng/mL |
| O=[N+]([O-])c1cn2c(n1)OC(COc1ncc(Cl)cn1)CC2 (centres undefined) | Cmax at 24 h | 760 ng/mL |
| C[C@]1(COc2ccc(C(F)(F)F)nc2)CCn2cc([N+](=O)[O-])nc2O1 | Cmax at 24 h | 7300 ng/mL |
| C[C@@]1(COc2ccc(C(F)(F)F)cn2)CCn2cc([N+](=O)[O-])nc2O1 | Cmax at 24 h | 33000 ng/mL |
